Values compiled from ChEMBL document CHEMBL1961873.

Target: Serine/threonine-protein kinase D3 (Homo sapiens);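 also: each value is the mean of inhibition readings, from a kinase profiling panel run on the GSK PKIS inhibitor collection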
Details: at 0.1 µM
measured-metric: inhibition
Include the unit right after the number.

Item CC(C)c1ccc(-c2cc(-c3c[nH]nc3-c3ccccn3)ccn2)cc1 : provide inhibition
1.32%

Item COc1ccccc1-c1cc(/C=C2\C(=O)Nc3ncc(Br)cc32)cc(Br)c1O : provide inhibition
5.02%

Item O=C(O[C@H]1CN[C@H](C#Cc2cc3ncnc(Nc4ccc5c(ccn5Cc5cc(F)ccc5F)c4)c3s2)C1)N1CCOCC1 : provide inhibition
5.21%

Item CS(=O)(=O)CCNCc1ccc(-c2ccc3ncnc(Nc4ccc(OCc5ccccc5)cc4)c3c2)o1 : provide inhibition
3.53%

Item Cn1c(-c2nonc2N)nc2cnccc21 : provide inhibition
2.73%

Item COc1cc(N2CCN(C(C)C)CC2)ccc1Nc1nc(Nc2cccc3ncccc23)c2cc[nH]c2n1 : provide inhibition
-0.78%

Item OCCCNc1nccc(-c2c(-c3ccc(F)cc3)nn3cc(C(F)(F)F)ccc23)n1 : provide inhibition
4.73%

Item Cc1nnc(-c2cccc(-c3ccc(C(=O)NCC4CC4)cc3)c2)o1 : provide inhibition
6.14%

Item CC1=C(C(=O)Nc2ccc3[nH]nc(C)c3c2)C(c2ccc(C(F)(F)F)cc2)CC(=O)N1 (centres undefined) : provide inhibition
3.46%
